Field: IC50. Provide a value for each of the compounds that follow.
test system: RPMI-8226 cells; test: NCI in vitro screen, leukemia RPMI-8226; format: cell-based; conditions: Homo sapiens

COMPOUND | STUDY_SYSTEM | IC50
Cc1ccc(/C=C2\CN(C(=O)CCN3CCC(=NO)CC3)C/C(=C\c3ccc(C)cc3)C2=O)cc1 [Compound 3f] | RPMI-8226 cells | 300 nM
O=C1/C(=C/c2ccc(Cl)c(Cl)c2)CN(C(=O)CCN2CCC(=NO)CC2)C/C1=C\c1ccc(Cl)c(Cl)c1 [Compound 3d] | RPMI-8226 cells | 230 nM
COc1ccc(/C=C2\CN(C(=O)CCN3CCC(=NO)CC3)C/C(=C\c3ccc(OC)cc3)C2=O)cc1 [Compound 3g] | RPMI-8226 cells | 650 nM

Provide the reported IC50 of each entry below, same order.
1. O=C1/C(=C/c2ccc(F)cc2)CN(C(=O)CCN2CCC(=NO)CC2)C/C1=C\c1ccc(F)cc1 [Compound 3b]
2. O=C1/C(=C/c2ccc([N+](=O)[O-])cc2)CN(C(=O)CCN2CCC(=NO)CC2)C/C1=C\c1ccc([N+](=O)[O-])cc1 [Compound 3e]
3. COc1cc(/C=C2\CN(C(=O)CCN3CCC(=NO)CC3)C/C(=C\c3cc(OC)c(OC)c(OC)c3)C2=O)cc(OC)c1OC [Compound 3h]
4. O=C1/C(=C/c2ccccc2)CN(C(=O)CCN2CCC(=NO)CC2)C/C1=C\c1ccccc1 [Compound 3a]
5. O=C1/C(=C/c2ccc(Cl)cc2)CN(C(=O)CCN2CCC(=NO)CC2)C/C1=C\c1ccc(Cl)cc1 [Compound 3c]

Output line:
1. 290 nM
2. 300 nM
3. 320 nM
4. 320 nM
5. 160 nM

###

experiment: Cytotoxicity against non-malignant HGF cells, MTT method, 48 h; format: cell-based; conditions: human, gingival fibroblasts (HGF)
QUANTITY_KIND: CC50 at 48 h
Output should be the measured figure followed by the unit it is expressed in.

See these solved cases before continuing.
COMPOUND | CC50 at 48 h
O=C1/C(=C/c2ccc(O)cc2)CN(C(=O)CCN2CCC(=NO)CC2)C/C1=C\c1ccc(O)cc1 | 64.9 µM
C[N+]1(CCC(=O)N2C/C(=C\c3ccc(Cl)c(Cl)c3)C(=O)/C(=C/c3ccc(Cl)c(Cl)c3)C2)CCC(=NO)CC1 (stereo not shown) | 1.15 µM
COc1cc(/C=C2\CN(C(=O)CC[N+]3(C)CCC(=NO)CC3)C/C(=C\c3cc(OC)c(OC)c(OC)c3)C2=O)cc(OC)c1OC (stereo not shown) | 0.62 µM

Then this compound:
Input line: Param item = O=C1/C(=C/c2ccc(Cl)cc2)CN(C(=O)CCN2CCC(=NO)CC2)C/C1=C\c1ccc(Cl)cc1 ; retrieve measured CC50 at 48 h.
Output line: 6.4 µM

###

system: HCT-15 cells; assay: NCI in vitro screen, colon cancer HCT-15; type: cell-based; settings: Homo sapiens
Criterion: IC50 strictly under 400 nM. Met: yes (1). Not met: no (0).

Solved entries (count: 5):
SMILES_RECORD | LABEL_CLASS
O=C1/C(=C/c2ccc(Cl)c(Cl)c2)CN(C(=O)CCN2CCC(=NO)CC2)C/C1=C\c1ccc(Cl)c(Cl)c1 | yes (1)
O=C1/C(=C/c2ccc([N+](=O)[O-])cc2)CN(C(=O)CCN2CCC(=NO)CC2)C/C1=C\c1ccc([N+](=O)[O-])cc1 | yes (1)
O=C1/C(=C/c2ccccc2)CN(C(=O)CCN2CCC(=NO)CC2)C/C1=C\c1ccccc1 | no (0)
COc1cc(/C=C2\CN(C(=O)CCN3CCC(=NO)CC3)C/C(=C\c3cc(OC)c(OC)c(OC)c3)C2=O)cc(OC)c1OC | no (0)
O=C1/C(=C/c2ccc(Cl)cc2)CN(C(=O)CCN2CCC(=NO)CC2)C/C1=C\c1ccc(Cl)cc1 | yes (1)

Input line: Could you please tell me whether IC50 recorded for COc1ccc(/C=C2\CN(C(=O)CCN3CCC(=NO)CC3)C/C(=C\c3ccc(OC)cc3)C2=O)cc1 is less than 400 nM?
Output line: no (0)

Input line: Find out if reported IC50 for Cc1ccc(/C=C2\CN(C(=O)CCN3CCC(=NO)CC3)C/C(=C\c3ccc(C)cc3)C2=O)cc1 is less than 400 nM
Output line: no (0)

Input line: Determine if O=C1/C(=C/c2ccc(F)cc2)CN(C(=O)CCN2CCC(=NO)CC2)C/C1=C\c1ccc(F)cc1 shows IC50 strictly lower than 400 nM.
Output line: yes (1)
